Target: T1, cynomolgus serum albumin (cynomolgus)
T1 construct: also called CSA; Cyano
T1 sequence (A2V9Z4 25-608): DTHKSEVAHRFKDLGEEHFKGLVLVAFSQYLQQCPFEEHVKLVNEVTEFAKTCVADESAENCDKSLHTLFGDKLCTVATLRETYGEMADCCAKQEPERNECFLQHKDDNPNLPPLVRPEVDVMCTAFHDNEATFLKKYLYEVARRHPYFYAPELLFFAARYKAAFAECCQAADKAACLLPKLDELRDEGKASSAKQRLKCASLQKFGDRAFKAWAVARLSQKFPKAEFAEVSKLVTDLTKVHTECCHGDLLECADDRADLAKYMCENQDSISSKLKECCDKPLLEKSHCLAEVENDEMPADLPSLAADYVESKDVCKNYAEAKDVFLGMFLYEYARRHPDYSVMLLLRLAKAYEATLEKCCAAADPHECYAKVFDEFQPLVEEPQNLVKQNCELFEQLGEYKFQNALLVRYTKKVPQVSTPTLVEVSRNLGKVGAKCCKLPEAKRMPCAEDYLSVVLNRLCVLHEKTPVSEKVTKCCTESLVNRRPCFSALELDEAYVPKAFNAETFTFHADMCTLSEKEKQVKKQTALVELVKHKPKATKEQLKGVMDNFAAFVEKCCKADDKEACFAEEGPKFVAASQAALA
Test: SPR, CSA on chip, pH 7.4
The reader will find reported pKd values listed item by item below.
// returns pKd (minus log10 of molar concentration), number only

{"Binder": "BA11-S-maleimide-peg-fluorescein (VNAR, C-terminal thiol joined to maleimide-peg-fluorescein, also called BA11-S-mal-Fl) VNAR: TRVDQSPSSLSASVGDRVTITCVLTDTSYPLYSTYWYRKNPGSSNKEQISISGRYSESVNKGTKSFTLTISSLQPEDSATYYCRAMSTNIWTGDGAGTKVEIK", "pKd": 8.64}
{"Binder": "BA11-aminoxy (VNAR, C-terminal aminoxy from dioxyamine cleavage of the intein fusion) VNAR: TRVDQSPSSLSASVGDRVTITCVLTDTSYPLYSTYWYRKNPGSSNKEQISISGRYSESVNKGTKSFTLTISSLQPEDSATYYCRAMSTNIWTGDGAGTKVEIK", "pKd": 8.10}

Value of measured pKd for the entry BA11 C-terminal thiol derivative (VNAR, C-terminal thiol from cysteamine cleavage of the intein fusion, also called BA11-SH) VNAR: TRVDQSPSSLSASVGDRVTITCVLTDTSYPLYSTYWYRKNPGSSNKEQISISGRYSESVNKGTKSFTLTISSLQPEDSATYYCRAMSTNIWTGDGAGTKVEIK : 8.47
